- Tested on: M14 melanoma
- EXPERIMENT: NCI tumour cell line growth inhibition, 48 h
GI50 listing for selected compounds.
REPORTED_METRIC: GI50

>>> result("C=C(C)C1CCC2(C(=O)O)CCC3(C)C(CCC4C5(C)CCC(OC(=O)NCc6ccccc6)C(C)(C)C5CCC43C)C12 (configuration not stated)")
"5980 nM"
>>> result("C/C=C1/C(=C/c2[nH]c(/C=c3\\[nH]/c(=C/C4=NC(=O)C(CC)=C4C)c(C)c3CCC(=O)O)c(CCC(=O)O)c2C)NC(=O)C1C (configuration not stated)")
"> 150 µg/mL"
>>> result("COc1ncc(-c2ccc3ncnc(Nc4cccc(Cl)c4)c3c2)cc1NS(=O)(=O)CCN1CCOCC1")
"755 nM"
>>> result("COc1cc(NS(=O)(=O)c2ccc(-c3cnc(C4CC4)o3)cc2)ccc1F")
"269 nM"
>>> result("C=C[C@H]1C[C@@H]2C[C@@H]3[C@H]4C/C=C\\C(=O)NCCCC5NC(=O)C(=C(O)/C=C/[C@@H]4CC(=O)[C@H]3[C@@H]2[C@H]1C)C5=O (some centres not stated)")
"253 nM"
>>> result("Cc1ccc(NC(=O)c2sc3nc(C)c(C(O)c4ccccc4)cc3c2N)cc1 (configuration not stated)")
"284 nM"
>>> result("CON(C)C(=O)N1N=C(c2cc(F)ccc2F)SC1(CCCN)c1ccccc1 (configuration not stated)")
"< 10 nM"
>>> result("O=C(/C=C\\n1cnc(-c2cc(C(F)(F)F)cc(C(F)(F)F)c2)n1)NNc1cnccn1")
"311 nM"
>>> result("CCC(=O)c1c(C(F)(F)F)n([O-])c2ccc(C)cc2[n+]1=O")
"15300 nM"
>>> result("O=C(/C(=C/c1cccc([N+](=O)[O-])c1)c1ccccc1)c1ccccc1")
"3450 nM"
>>> result("COc1ccc(-n2cc(-c3cc(OC)c(OC)c(OC)c3)[nH]c2=O)cc1Cl")
"> 100000 nM"
>>> result("c1cc[c]([Pb]([c]2ccccc2)[c]2ccccc2)cc1")
"14200 nM"

Source listed as PubChem BioAssay (NCI).
